Data credit: the supplement of paper PMC9112550

Tested on: Escherichia coli TOP10
Assay: shrunken log2 fold change of peptide-encoding DNA abundance (4.5 h post-induction vs induction); higher = less antimicrobial activity (less host growth inhibition)
Assay conditions: time post-induction: 4.5 h; library: site-saturation at positions 5, 18, 19, 20
Assignment: determine reported shrunken log2 fold change for the given sequences.
# print the numeric value only

Asked: # input sequence: `RRIRKRPPRLPRPRPRPPCEPRP` ; wanted: its shrunken log2 fold change
Given back: 0.509

Asked: # input sequence: `RRIRARPPRLPRPRPRPKQPPRP` ; wanted: its shrunken log2 fold change
Given back: 0.516

Asked: # input sequence: `RRIRTRPPRLPRPRPRPAKMPRP` ; wanted: its shrunken log2 fold change
Given back: -0.0252

Asked: # input sequence: `RRIRERPPRLPRPRPRPTYEPRP` ; wanted: its shrunken log2 fold change
Given back: -1.47

Asked: # input sequence: `RRIRGRPPRLPRPRPRPGPLPRP` ; wanted: its shrunken log2 fold change
Given back: 0.363

Asked: # input sequence: `RRIRLRPPRLPRPRPRPWGTPRP` ; wanted: its shrunken log2 fold change
Given back: -0.169

Asked: # input sequence: `RRIRNRPPRLPRPRPRPAVNPRP` ; wanted: its shrunken log2 fold change
Given back: -0.169

Asked: # input sequence: `RRIRRRPPRLPRPRPRPQCPPRP` ; wanted: its shrunken log2 fold change
Given back: -0.178

Asked: # input sequence: `RRIRIRPPRLPRPRPRPACNPRP` ; wanted: its shrunken log2 fold change
Given back: -0.363

Asked: # input sequence: `RRIRIRPPRLPRPRPRPYITPRP` ; wanted: its shrunken log2 fold change
Given back: -1.34

Asked: # input sequence: `RRIRVRPPRLPRPRPRPNSMPRP` ; wanted: its shrunken log2 fold change
Given back: -0.575

Asked: # input sequence: `RRIRNRPPRLPRPRPRPIENPRP` ; wanted: its shrunken log2 fold change
Given back: 0.0211

Asked: # input sequence: `RRIRQRPPRLPRPRPRPDNFPRP` ; wanted: its shrunken log2 fold change
Given back: 0.013

Asked: # input sequence: `RRIRSRPPRLPRPRPRPDVVPRP` ; wanted: its shrunken log2 fold change
Given back: -0.448

Asked: # input sequence: `RRIRMRPPRLPRPRPRPPCTPRP` ; wanted: its shrunken log2 fold change
Given back: 0.738

---

System: Escherichia coli TOP10
Assay: shrunken log2 fold change of peptide-encoding DNA abundance (4.5 h post-induction vs induction); higher = less antimicrobial activity (less host growth inhibition)
Assay conditions: time post-induction: 4.5 h; library: site-saturation at positions 5, 18, 19, 20
Assignment: determine reported shrunken log2 fold change for the given sequences.
# print the numeric value only

Asked: # input sequence: `RRIRLRPPRLPRPRPRPEYNPRP` ; wanted: its shrunken log2 fold change
Given back: -0.15

Asked: # input sequence: `RRIRQRPPRLPRPRPRPSKHPRP` ; wanted: its shrunken log2 fold change
Given back: -0.641

Asked: # input sequence: `RRIRMRPPRLPRPRPRPREAPRP` ; wanted: its shrunken log2 fold change
Given back: 1.82

Asked: # input sequence: `RRIRTRPPRLPRPRPRPTFEPRP` ; wanted: its shrunken log2 fold change
Given back: -0.0371

Asked: # input sequence: `RRIRVRPPRLPRPRPRPACNPRP` ; wanted: its shrunken log2 fold change
Given back: -0.0138

Asked: # input sequence: `RRIRLRPPRLPRPRPRPWYVPRP` ; wanted: its shrunken log2 fold change
Given back: -0.125

Asked: # input sequence: `RRIRFRPPRLPRPRPRPDLSPRP` ; wanted: its shrunken log2 fold change
Given back: -0.0807

Asked: # input sequence: `RRIRWRPPRLPRPRPRPNWHPRP` ; wanted: its shrunken log2 fold change
Given back: -0.00322

Asked: # input sequence: `RRIRLRPPRLPRPRPRPHGIPRP` ; wanted: its shrunken log2 fold change
Given back: -0.017

Asked: # input sequence: `RRIRNRPPRLPRPRPRPKMIPRP` ; wanted: its shrunken log2 fold change
Given back: -0.495

Asked: # input sequence: `RRIRRRPPRLPRPRPRPWMHPRP` ; wanted: its shrunken log2 fold change
Given back: 0.103

Asked: # input sequence: `RRIRIRPPRLPRPRPRPMGPPRP` ; wanted: its shrunken log2 fold change
Given back: 0.0284

Asked: # input sequence: `RRIRCRPPRLPRPRPRPWMSPRP` ; wanted: its shrunken log2 fold change
Given back: -0.824

Asked: # input sequence: `RRIRRRPPRLPRPRPRPDHTPRP` ; wanted: its shrunken log2 fold change
Given back: -0.447

Asked: # input sequence: `RRIRPRPPRLPRPRPRPTCCPRP` ; wanted: its shrunken log2 fold change
Given back: -0.0529

---

Assignment: determine reported shrunken log2 fold change for the given sequences.
Tested on: Escherichia coli TOP10;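 note: peptides expressed intracellularly from a pBAD plasmid library in pooled LB shake-flask culture, induced with 0.3% L-arabinose, DNA abundance read by NGS, three biological replicates, DESeq2 with apeglm shrinkage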
Assay: shrunken log2 fold change of peptide-encoding DNA abundance (4.5 h post-induction vs induction); higher = less antimicrobial activity (less host growth inhibition)
Assay conditions: time post-induction: 4.5 h; library: site-saturation at positions 5, 18, 19, 20
# print the numeric value only

Asked: # input sequence: `RRIRSRPPRLPRPRPRPPMDPRP` ; wanted: its shrunken log2 fold change
Given back: -0.0324

Asked: # input sequence: `RRIRARPPRLPRPRPRPPWMPRP` ; wanted: its shrunken log2 fold change
Given back: 0.463

Asked: # input sequence: `RRIRYRPPRLPRPRPRPDVAPRP` ; wanted: its shrunken log2 fold change
Given back: 0.105

Asked: # input sequence: `RRIRERPPRLPRPRPRPEVTPRP` ; wanted: its shrunken log2 fold change
Given back: -0.0794

Asked: # input sequence: `RRIRKRPPRLPRPRPRPADDPRP` ; wanted: its shrunken log2 fold change
Given back: 0.799

Asked: # input sequence: `RRIRNRPPRLPRPRPRPTTTPRP` ; wanted: its shrunken log2 fold change
Given back: 0.082

Asked: # input sequence: `RRIRQRPPRLPRPRPRPEQRPRP` ; wanted: its shrunken log2 fold change
Given back: 0.0426

Asked: # input sequence: `RRIRVRPPRLPRPRPRPAYGPRP` ; wanted: its shrunken log2 fold change
Given back: -0.473

Asked: # input sequence: `RRIRQRPPRLPRPRPRPSTVPRP` ; wanted: its shrunken log2 fold change
Given back: -0.534

Asked: # input sequence: `RRIRSRPPRLPRPRPRPYDIPRP` ; wanted: its shrunken log2 fold change
Given back: -0.0295

Asked: # input sequence: `RRIRSRPPRLPRPRPRPEEWPRP` ; wanted: its shrunken log2 fold change
Given back: -0.0481

Asked: # input sequence: `RRIRARPPRLPRPRPRPQEPPRP` ; wanted: its shrunken log2 fold change
Given back: 0.744

Asked: # input sequence: `RRIRERPPRLPRPRPRPRAFPRP` ; wanted: its shrunken log2 fold change
Given back: 0.189

Asked: # input sequence: `RRIRKRPPRLPRPRPRPDFIPRP` ; wanted: its shrunken log2 fold change
Given back: -0.209

Asked: # input sequence: `RRIRGRPPRLPRPRPRPVLTPRP` ; wanted: its shrunken log2 fold change
Given back: 0.834

Asked: # input sequence: `RRIRGRPPRLPRPRPRPGHNPRP` ; wanted: its shrunken log2 fold change
Given back: 0.0636

Asked: # input sequence: `RRIRRRPPRLPRPRPRPMTVPRP` ; wanted: its shrunken log2 fold change
Given back: -0.238

Asked: # input sequence: `RRIRWRPPRLPRPRPRPFQCPRP` ; wanted: its shrunken log2 fold change
Given back: -0.0406

Asked: # input sequence: `RRIRARPPRLPRPRPRPYGGPRP` ; wanted: its shrunken log2 fold change
Given back: -0.221

Asked: # input sequence: `RRIRERPPRLPRPRPRPEMHPRP` ; wanted: its shrunken log2 fold change
Given back: 0.0332

Asked: # input sequence: `RRIRDRPPRLPRPRPRPVDLPRP` ; wanted: its shrunken log2 fold change
Given back: 0.0194

Asked: # input sequence: `RRIRVRPPRLPRPRPRPYEVPRP` ; wanted: its shrunken log2 fold change
Given back: 0.0284

Asked: # input sequence: `RRIRNRPPRLPRPRPRPPGWPRP` ; wanted: its shrunken log2 fold change
Given back: 1.24

Asked: # input sequence: `RRIRYRPPRLPRPRPRPWKSPRP` ; wanted: its shrunken log2 fold change
Given back: -0.118

Asked: # input sequence: `RRIRIRPPRLPRPRPRPIYYPRP` ; wanted: its shrunken log2 fold change
Given back: -0.539

Asked: # input sequence: `RRIRTRPPRLPRPRPRPCPVPRP` ; wanted: its shrunken log2 fold change
Given back: -0.175

Asked: # input sequence: `RRIRHRPPRLPRPRPRPINEPRP` ; wanted: its shrunken log2 fold change
Given back: -0.99

Asked: # input sequence: `RRIRHRPPRLPRPRPRPLRKPRP` ; wanted: its shrunken log2 fold change
Given back: 0.0993

Asked: # input sequence: `RRIRERPPRLPRPRPRPHYKPRP` ; wanted: its shrunken log2 fold change
Given back: -0.901

Asked: # input sequence: `RRIRARPPRLPRPRPRPHMLPRP` ; wanted: its shrunken log2 fold change
Given back: -0.196

Asked: # input sequence: `RRIRNRPPRLPRPRPRPNVIPRP` ; wanted: its shrunken log2 fold change
Given back: -0.261

Asked: # input sequence: `RRIRNRPPRLPRPRPRPKCVPRP` ; wanted: its shrunken log2 fold change
Given back: -0.0346
